Target: T1, huBTNL3 (human, UniProt Q6UXE8 18-237, limits assumed)
T1 construct: Sourced antigen; construct not described; also called Human BTNL3
T1 sequence (looked up): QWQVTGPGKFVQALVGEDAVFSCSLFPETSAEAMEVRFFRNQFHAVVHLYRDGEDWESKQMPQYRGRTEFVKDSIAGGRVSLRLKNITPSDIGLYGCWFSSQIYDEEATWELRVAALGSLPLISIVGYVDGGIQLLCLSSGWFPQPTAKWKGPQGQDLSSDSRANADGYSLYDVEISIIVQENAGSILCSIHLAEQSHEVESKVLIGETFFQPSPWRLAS
Assay: ELISA
metric: binding result

>  <binder>
ZY0EQD-E02 human IgG1-TM (antibody, V domains shown) VH: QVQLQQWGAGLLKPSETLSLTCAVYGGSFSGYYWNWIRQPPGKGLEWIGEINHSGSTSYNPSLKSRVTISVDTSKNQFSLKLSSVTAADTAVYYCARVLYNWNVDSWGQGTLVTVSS VL: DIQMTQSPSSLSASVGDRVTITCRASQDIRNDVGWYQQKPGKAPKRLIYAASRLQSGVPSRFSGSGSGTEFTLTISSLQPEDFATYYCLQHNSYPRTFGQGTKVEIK

>  <binding result>
no binding

$$$$
>  <binder>
ZY0EOB-F05 murine IgG1 (antibody, V domains shown) VH: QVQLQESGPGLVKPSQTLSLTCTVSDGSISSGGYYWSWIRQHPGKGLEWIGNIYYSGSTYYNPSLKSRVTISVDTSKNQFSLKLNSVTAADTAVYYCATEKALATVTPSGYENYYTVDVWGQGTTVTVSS VL: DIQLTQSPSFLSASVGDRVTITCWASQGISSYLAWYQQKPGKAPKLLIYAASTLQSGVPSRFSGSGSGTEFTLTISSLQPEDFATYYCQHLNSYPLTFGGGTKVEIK

>  <binding result>
no binding

$$$$
>  <binder>
ZY0EPQ-E02 human IgG1-TM (antibody, V domains shown) VH: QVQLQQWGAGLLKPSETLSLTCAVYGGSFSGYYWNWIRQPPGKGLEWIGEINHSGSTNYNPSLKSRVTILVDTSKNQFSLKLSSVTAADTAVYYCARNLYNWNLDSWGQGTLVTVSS VL: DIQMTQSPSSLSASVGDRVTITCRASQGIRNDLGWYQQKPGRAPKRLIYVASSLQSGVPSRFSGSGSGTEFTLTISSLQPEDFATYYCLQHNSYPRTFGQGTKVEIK

>  <binding result>
no binding

$$$$
>  <binder>
ZY0EO5-E07 human IgG1-TM (antibody, V domains shown, also called ZY0E05-E07; E05-E07) VH: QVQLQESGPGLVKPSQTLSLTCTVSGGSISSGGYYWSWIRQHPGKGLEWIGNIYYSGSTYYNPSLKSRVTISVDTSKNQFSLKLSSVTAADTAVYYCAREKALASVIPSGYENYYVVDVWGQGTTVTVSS VL: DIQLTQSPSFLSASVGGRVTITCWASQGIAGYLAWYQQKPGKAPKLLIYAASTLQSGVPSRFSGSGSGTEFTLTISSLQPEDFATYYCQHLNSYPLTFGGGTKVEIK

>  <binding result>
no binding

$$$$

Request: Query (binder): ZY0EO5-E07 murine IgG1 (antibody, V domains shown, also called ZY0E05-E07; E05-E07) VH: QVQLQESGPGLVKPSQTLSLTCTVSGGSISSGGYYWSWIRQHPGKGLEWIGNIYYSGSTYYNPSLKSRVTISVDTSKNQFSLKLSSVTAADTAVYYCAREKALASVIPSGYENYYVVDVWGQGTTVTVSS VL: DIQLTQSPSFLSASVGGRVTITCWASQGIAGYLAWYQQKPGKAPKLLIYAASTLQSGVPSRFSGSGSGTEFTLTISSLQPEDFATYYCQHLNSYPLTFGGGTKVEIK ; field requested: binding result
Result: no binding
